Just for reference, BigSolDB 2.1 is where these values come from.

# applied_conditions: in methanol, 283.37 K
quantity: solubility (mole fraction)

Task: Indicate its recorded solubility (mole fraction); the compound in question is CC[C@@]1(O)C(=O)OCc2c1cc1n(c2=O)Cc2cc3ccccc3nc2-1
Result: 1.57e-05

###

# applied_conditions: in methanol, 289.49 K
quantity: solubility (mole fraction)
Give bare numbers.

Task: Indicate its recorded solubility (mole fraction); the molecule in question is CC[C@@]1(O)C(=O)OCc2c1cc1n(c2=O)Cc2cc3ccccc3nc2-1
Result: 1.95e-05

###

# applied_conditions: in ethanol, 326.3 K
quantity: solubility (mole fraction)

Task: Indicate its recorded solubility (mole fraction); the compound in question is CC[C@@]1(O)C(=O)OCc2c1cc1n(c2=O)Cc2cc3ccccc3nc2-1
Result: 4.91e-05

###

# applied_conditions: in ethanol, 294.63 K
quantity: solubility (mole fraction)
Numbers only.

Task: Indicate its recorded solubility (mole fraction); the compound in question is CC[C@@]1(O)C(=O)OCc2c1cc1n(c2=O)Cc2cc3ccccc3nc2-1
Result: 1.78e-05

###

# applied_conditions: in chloroform, 282.38 K
quantity: solubility (mole fraction)
Answers are plain numbers.

Task: Indicate its recorded solubility (mole fraction); the molecule in question is CC[C@@]1(O)C(=O)OCc2c1cc1n(c2=O)Cc2cc3ccccc3nc2-1
Result: 0.000272

###

# applied_conditions: in ethanol, 287.95 K
quantity: solubility (mole fraction)
Give bare numbers.

Task: Indicate its recorded solubility (mole fraction); the compound in question is CC[C@@]1(O)C(=O)OCc2c1cc1n(c2=O)Cc2cc3ccccc3nc2-1
Result: 1.39e-05

###

# applied_conditions: in chloroform, 305.96 K
quantity: solubility (mole fraction)
Numbers only.

Task: Indicate its recorded solubility (mole fraction); the compound in question is CC[C@@]1(O)C(=O)OCc2c1cc1n(c2=O)Cc2cc3ccccc3nc2-1
Result: 0.000441

###

# applied_conditions: in ethanol, 297.81 K
quantity: solubility (mole fraction)

Task: Indicate its recorded solubility (mole fraction); the compound in question is CC[C@@]1(O)C(=O)OCc2c1cc1n(c2=O)Cc2cc3ccccc3nc2-1
Result: 2.01e-05

###

# applied_conditions: in ethanol, 281.62 K
quantity: solubility (mole fraction)
Give bare numbers.

Task: Indicate its recorded solubility (mole fraction); the molecule in question is CC[C@@]1(O)C(=O)OCc2c1cc1n(c2=O)Cc2cc3ccccc3nc2-1
Result: 1.08e-05

###

# applied_conditions: in ethanol, 324.43 K
quantity: solubility (mole fraction)
Answers are plain numbers.

Task: Indicate its recorded solubility (mole fraction); the compound in question is CC[C@@]1(O)C(=O)OCc2c1cc1n(c2=O)Cc2cc3ccccc3nc2-1
Result: 4.64e-05

###

# applied_conditions: in chloroform, 297.25 K
quantity: solubility (mole fraction)
Numbers only.

Task: Indicate its recorded solubility (mole fraction); the compound in question is CC[C@@]1(O)C(=O)OCc2c1cc1n(c2=O)Cc2cc3ccccc3nc2-1
Result: 0.000375

###

# applied_conditions: in chloroform, 318.31 K
quantity: solubility (mole fraction)
One number for each entry.

Task: Indicate its recorded solubility (mole fraction); the compound in question is CC[C@@]1(O)C(=O)OCc2c1cc1n(c2=O)Cc2cc3ccccc3nc2-1
Result: 0.000544

###

# applied_conditions: in methanol, 293.24 K
quantity: solubility (mole fraction)
Give bare numbers.

Task: Indicate its recorded solubility (mole fraction); the molecule in question is CC[C@@]1(O)C(=O)OCc2c1cc1n(c2=O)Cc2cc3ccccc3nc2-1
Result: 2.2e-05
